System: L1210 leukemia ip in BDF1 mice, survival T/C
Assay: NCI In Vivo Anticancer Drug Screen. Data for tumor model L1210 Leukemia (intraperitoneal) in B6D2F1 (BDF1) mice
Conditions: endpoint: mean survival time; dose: 200.0 mg/kg/injection; schedule: Q04DX002 (ip); vehicle: saline; higher = longer survival
Toxic doses and inconclusive results are not listed.
Exercise: for every item that follows, state its recorded T/C.

[
  {
    "molecule": "COCCc1nnn(C)n1",
    "T/C": "97 % of control"
  },
  {
    "molecule": "Nc1ccc2c(c1)C(=O)c1ccccc1C2=O",
    "T/C": "93 % of control"
  },
  {
    "molecule": "CCN(CC)CCOc1ccc(C(C)(C)c2ccc(OCCN(CC)CC)cc2)cc1",
    "T/C": "108 % of control"
  },
  {
    "molecule": "CC1CNC(=O)O1 (centres undefined)",
    "T/C": "91 % of control"
  },
  {
    "molecule": "Cc1cc(=O)[nH]c(NCC(=O)O)n1",
    "T/C": "101 % of control"
  },
  {
    "molecule": "CC/C=C1\\CCOC1=O",
    "T/C": "102 % of control"
  },
  {
    "molecule": "COP(=O)(O)NC(C)=O",
    "T/C": "108 % of control"
  },
  {
    "molecule": "COC(=O)c1cc(Cl)ccc1OCC(=O)Nc1cccc([N+](=O)[O-])c1",
    "T/C": "97 % of control"
  }
]

Provide reported T/C for each item, in the same order as listed.
1. CNCC(O)c1cc(OC)c(OC)c(OC)c1 (centres undefined)
2. C/C=C/C=C\COC(=O)C1CC1
3. CCCCCCOC(=O)C(C)(O)C(Cl)c1ccccc1 (centres undefined)
4. CCOCCOCCOCCOc1ccc2c(c1)OCO2
5. O=C(C1CC=CCC1)N1CCCCCC1 (centres undefined)
6. CC1(C)C2CCC1(C)C(C(=O)C(F)(F)F)C2=O.CC1(C)C2CCC1(C)C(C(=O)C(F)(F)F)C2=O.[Co] (centres undefined)

1: 93 % of control; 2: 121 % of control; 3: 111 % of control; 4: 88 % of control; 5: 111 % of control; 6: 94 % of control
